Recorded Test B Human Plasma Protein Binding (% free) by entry
Assay: Human Plasma Protein Binding (Test B)
Assay type: in vitro ADME
Conditions: fraction unbound (fu)
value kind: Test B Human Plasma Protein Binding (% free)

COc1cc(F)c(CC2CCC(C)(C(=O)O)CC2)cc1C(=O)NC1C2CCC(C2)C1C(=O)NCC1(C)CCC1 (centres unmarked) ... 0.58
CCc1cc(OC)c(C(=O)N[C@@H]2[C@H]3CC[C@H](C3)[C@@H]2C(=O)NCC2(C)CCC2)cc1O[C@H]1CC[C@@](C)(C(=O)O)CC1 ... 2.5
COc1cc(F)c(O[C@H]2CC[C@@H](C(=O)O)CC2)cc1C(=O)N[C@@H]1[C@H]2CC[C@H](C2)[C@@H]1C(=O)Nc1cccc(S(=O)(=O)C(F)(F)F)c1 ... 2.1
COc1cc(F)c(O[C@H]2CC[C@@](CO)(C(=O)O)CC2)cc1C(=O)N[C@@H]1[C@H]2CC[C@H](C2)[C@@H]1C(=O)NCC1(C)CCC1 ... 11
COc1cc(F)c(O[C@H]2CC[C@@H](C(=O)O)CC2)cc1C(=O)N[C@@H]1[C@H]2CC[C@H](C2)[C@@H]1C(=O)Nc1cccc(C2CC2)c1 ... 1.6
